# measurement target: recombinant human cGAS (Homo sapiens (Human))
# Sequence (Q8N884 whole entry): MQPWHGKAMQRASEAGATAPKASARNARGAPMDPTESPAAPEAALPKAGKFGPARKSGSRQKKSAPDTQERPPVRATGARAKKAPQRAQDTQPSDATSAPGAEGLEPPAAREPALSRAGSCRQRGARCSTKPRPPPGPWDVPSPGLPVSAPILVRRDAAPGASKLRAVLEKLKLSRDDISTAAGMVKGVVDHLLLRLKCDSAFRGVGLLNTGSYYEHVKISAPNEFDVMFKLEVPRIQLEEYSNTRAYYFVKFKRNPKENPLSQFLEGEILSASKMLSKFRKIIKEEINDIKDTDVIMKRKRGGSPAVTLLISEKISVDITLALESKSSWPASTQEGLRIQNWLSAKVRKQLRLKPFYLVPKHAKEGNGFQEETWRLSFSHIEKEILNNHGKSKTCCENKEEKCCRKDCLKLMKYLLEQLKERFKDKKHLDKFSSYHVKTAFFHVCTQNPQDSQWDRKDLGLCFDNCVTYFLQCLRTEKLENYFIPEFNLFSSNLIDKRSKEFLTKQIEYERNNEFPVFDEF
# assay procedure: In vitro inhibition assay of cGAS activity (cGAMP production, RapidFire mass spectrometry)
# Assay type: biochemical
# run conditions: 10 nM recombinant human cGAS, 60 nM 75-bp dsDNA, ATP, GTP, room temperature 3 hours, read-out: IC50 (μM), In vitro inhibition assay for Compounds 1-94
metric: IC50 (µM)

1. CCOc1cc(Cl)c(Cl)c2c1c(-c1cn[nH]c1)c1n2CCN(C(=O)CO)C1	0.0405
2. O=C1Cn2c(c(-c3cn[nH]c3)c3ccc(Cl)c(Cl)c32)CN1	0.0531
3. CC(=O)NC1CCn2c1c(-c1cn[nH]c1)c1ccc(Cl)c(Cl)c12 (single isomer, unassigned) [Example 27]	0.158
4. O=C(CN1CCOCC1)N1CCn2c(c(-c3cn[nH]c3)c3ccc(Cl)c(Cl)c32)C1	0.0834

[P] O=C(O)C1CCCc2c(-c3cn[nH]c3)c3ccc(Cl)c(Cl)c3n2C1 (stereo not drawn)
[Q] N#CCNc1cc(Cl)c(Cl)c2c1c(-c1cn[nH]c1)c1n2CCN(C(=O)CO)C1
Between the entries labeled P and Q , whose measured IC50 is lower? Write down the label of the entry you select.
P

[a] COCC(=O)N1CCn2c(c(-c3cn[nH]c3)c3ccc(Cl)c(Cl)c32)C1
[b] CN1Cc2c(-c3cn[nH]c3)c3ccc(Cl)c(Cl)c3n2CC1=O
Between the entries labeled a and b , whose measured IC50 is lower? Write down the label of the entry you select.
a
(a: 0.0273 µM, b: 0.045 µM)

[A] Cn1ncnc1COCC(=O)N1CCn2c(c(-c3cn[nH]c3)c3ccc(Cl)c(Cl)c32)C1
[B] Clc1ccc2c(-c3cn[nH]c3)c[nH]c2c1Cl
[C] OCC1CCn2c(c(-c3cn[nH]c3)c3ccc(Cl)c(Cl)c32)C1 (single isomer, unassigned) [Example 15]
[D] Cc1[nH]c2c(Cl)c(Cl)ccc2c1-c1cn[nH]c1
Rank entries according to their IC50, from the largest number down. Returns: the labels arranged in the requested order.
C, B, D, A
(C: 0.289 µM, B: 0.0863 µM, D: 0.0557 µM, A: 0.027 µM)
